Taken from ChEMBL document CHEMBL1122780.

Would you kindly list Delta blood pressure for each of these compounds?
tested on: Rattus norvegicus; test: Difference in systolic blood pressure of SH rats observed prior to the first application and 2 hr after the fifth application at the oral dose of 25 mg/kg was expressed as Delta BP; assay type: functional, Artery
One number for each entry, in mmHg.

Recorded results for 6 compounds are shown here.
GET /values?readout=Delta blood pressure&item= "COc1cc2c(cc1OC)-c1cc(=Nc3c(Cl)cc(Cl)cc3Cl)n(C)c(=O)n1CC2"
-21

Same again, this time with "COc1cc2c(cc1OC)-c1cc(Nc3ccc(C)c(Cl)c3Cl)nc(=O)n1CC2.Cl"
-19

And for "COc1cc2c(cc1OC)-c1cc(N(CP(C)(C)=O)c3c(F)cccc3F)nc(=O)n1CC2" ?
0

Same question, "COc1cc2c(cc1OC)-c1cc(Nc3c(C)cccc3C(C)(C)C)nc(=O)n1CC2.Cl" this time
0

Please do the same for "COc1cc2c(cc1OC)-c1cc(Nc3ccccc3Cl)nc(=O)n1CC2.Cl" as well.
0

What about this compound? "COc1cc2c(cc1OC)-c1cc(=Nc3c(F)cccc3F)n(CP(C)(C)=O)c(=O)n1CC2.Cl"
0

Next compound, please.
Using the record for "COc1cc2c(cc1OC)-c1cc(Nc3c(F)cccc3F)nc(=O)n1CC2" , report its Delta blood pressure.
0
